Property: melting point; scope: individual compounds

CC(C)(C)OC(=O)/C(=C/c1ccccc1)C(=O)c1ccccc1O | 109 to 110 °C
CCC(CC)c1ccc(Cl)c2nc3n(c12)CCCCN3c1ncc(C(F)(F)F)cc1Cl | 108 to 110 °C
COc1cc(C(O)c2ccnc3ccccc23)ccc1OCc1ccccc1 (stereo not given) | 117 to 118 °C
Clc1ccc2nc(Cl)oc2c1 | 40 to 44 °C

Please find the next compound below.
Query: Return reported melting point; argument: O=C(O)C(CN1CCCC1)C(C(=O)O)P(=O)(O)O (stereo not given)
Result: 122 to 124 °C

* * *

Property: melting point; scope: individual compounds

Study these solved cases before continuing.
CCOC(=O)C1=C(C)NC(c2ncc[nH]2)=NC1c1ccccc1Cl (stereo unspecified) | 121 to 125 °C
C=CCn1c(=O)c2cccnc2n(-c2cccc([N+](=O)[O-])c2)c1=O | 188 to 189 °C
OC1CCCNC1CN1CCCC1 (stereo unspecified) | 45 to 50 °C
O=c1[nH]c2cc(Cl)ccc2c(O)c1-c1ccc2c(c1)OCO2 | > 350 °C
COC(=O)c1ccc2c(c1)C=CC(=C(Cl)Cl)CO2 | 119 to 121 °C

Please find the next compound below.
Query: Return reported melting point; argument: Cc1[nH]c2cccc(/C=C/C(=O)OCc3ccccc3)c2c1Cn1ccnc1
Result: 207 to 208 °C

* * *

Property: melting point; scope: individual compounds

CCCNc1cc(-c2c(-c3cccc(C)c3)nc3cccnn23)ccn1 | 128 to 129 °C
Cn1c(=O)c(-c2ccccc2)nc2cc3c(cc21)OC(F)(F)O3 | 165 °C
COc1ccc(C)c(O)c1 | 34 to 35 °C
CN(C(=O)c1ccc2nonc2c1)C1CCS(=O)(=O)CC1 | 238 to 239 °C
Cc1cc(-c2c(-c3ccc(S(N)(=O)=O)cc3)cnn(-c3ccc(F)c(Cl)c3)c2=O)ccc1F | 243 to 245 °C
CC(C)(C)[Si](C)(C)C(F)(F)F | 52 to 54 °C
CC(C)(C)c1cc(C=C2SCN(CC(N)=O)C2=O)cc(C(C)(C)C)c1O | 232 °C
C[C@@H]1Cc2cc3c(cc2C(c2ccc([N+](=O)[O-])cc2)=NN1c1cnns1)OCO3 | 175 to 176 °C
CSc1ncncc1C1c2cc(NS(=O)(=O)c3ccccc3)ccc2CC1(C)C (centres undefined) | 174 to 176 °C
N#Cc1ncn2c1N(C(=O)CN1CCN(C(c3ccccc3)c3ccc(Cl)cc3)CC1)CC=C2c1cccc(C(F)(F)F)c1 (centres undefined) | 105 to 107 °C

Please find the next compound below.
Query: Return reported melting point; argument: COC(=O)c1ccc2c(c1)Sc1ccc(F)cc1C(=O)C2
Result: 129 to 131 °C

* * *

Measurement type: melting point

Study these solved cases before continuing.
COc1ccc2[nH]c3c(c2c1)C1C(=O)OC(=O)C1C(c1ccccc1Cl)C3 (stereo unspecified) | 189 to 191 °C
CC(=O)N1CCC(NC(=O)Nc2cccc(C(F)(F)F)c2)CC1 | 212 to 217 °C
COc1ccccc1N1CCN(CCCn2c(=O)[nH]c3c(c2=O)CCCC3)CC1 | 212 to 214 °C

Query: Return reported melting point; argument: COc1ccc(OC)c2c1CCC(O)(CCO)C2 (stereo unspecified)
Result: 121 to 122 °C

Query: Try this compound too: Cc1cc(F)cc(C=O)c1O
Result: 49 to 52 °C

Query: Try this compound too: O=C(Cc1cccc2ccccc12)Nc1cc([C@H]2C[C@@H](NC(=O)c3ccccc3)C2)[nH]n1
Result: 194 °C

Query: Try this compound too: CCn1c(=O)oc2ccc(Cl)cc21
Result: 75 to 78 °C

Query: Try this compound too: CCn1c(=O)c2c(nc(C=Cc3ccc(C(=O)O)cc3OC)n2C)n(CC)c1=O
Result: > 280 °C

Query: Try this compound too: Oc1ccc2cc(-c3noc4cc(O)ccc34)ccc2c1
Result: 280 to 282 °C

Query: Try this compound too: N#CC(=Cc1cc(O)c(O)c([N+](=O)[O-])c1)C(N)=O
Result: 296 to 298 °C

Query: Try this compound too: N#CC1CCc2c(OCCn3ccnc3)cccc21 (stereo unspecified)
Result: 115 to 117 °C

* * *

Property: melting point; scope: individual compounds

Study these solved cases before continuing.
CCC(CC)NC(=O)n1nc(Oc2c(Cl)cc(C(F)(F)F)cc2Cl)cc1C | 65 to 67 °C
Cc1cn(-c2ccc(NC(=O)c3ccc(C)c(Nc4nccc(-c5cccnc5)n4)c3)cc2C(F)(F)F)cn1 | 154 to 163 °C
CCC1=CC(=O)C2(C)CCC3c4ccc(OC)cc4CCC3C12 (centres undefined) | 103 to 106 °C

Please find the next compound below.
Query: Return reported melting point; argument: CNC(=O)N(O)CCOc1ccc2c(c1)CCN(CCCc1ccccc1)C2=O
Result: 138 to 139 °C

* * *

Measurement type: melting point

CCCCCCOc1ccc2[nH]c(C)c(CC(=O)O)c2c1 | 65 to 67 °C

Query: Return reported melting point; argument: CCCc1nc(-c2ncn3c2COC(=O)c2c(Cl)cccc2-3)no1
Result: 130 to 132 °C

Query: Try this compound too: COCc1c(C(=O)OC(C)(C)C)ncc2[nH]c3ccc(Oc4ccc(Br)cn4)cc3c12
Result: 173 to 175 °C

Query: Try this compound too: CC(O)=C(C(=O)OCc1ccccc1)N1C(=O)[C@@H](N2C(=O)c3ccccc3C2=O)[C@H]1COS(C)(=O)=O
Result: 61 to 65 °C

Query: Try this compound too: COCC(C)Oc1cc(Oc2ccc(S(C)(=O)=O)cc2)cc2cc(C3=NCC(C(OC)OC)S3)[nH]c12 (stereo not given)
Result: 109 to 112 °C

* * *

Measurement type: melting point

Study these solved cases before continuing.
CC(O)COc1cccc2oc(C(N)=O)cc(=O)c12 (stereo not given) | 229 to 231 °C
Cn1cc(-c2cccc(C(F)(F)F)c2)c(=O)c(-c2cccc(S(C)(=O)=O)c2)c1 | 180 to 183 °C
CCc1nc(-c2cccc(C)c2)c(-c2ccnc(CC#N)c2)s1 | 68 to 69 °C
NCCc1c[nH]c2ccc(Cc3ccccc3)cc12 | 150 to 153 °C

Please find the next compound below.
Query: Return reported melting point; argument: COc1ccc(C2c3ccccc3C(c3ccc(OC)cc3)C2C(=O)O)cc1 (stereo not given)
Result: 192 to 193 °C

* * *

Property: melting point; scope: individual compounds

Study these solved cases before continuing.
COC(=O)c1ncnn1Cc1ccc([N+](=O)[O-])cc1 | 126 to 130 °C
O=C1Cc2cccc(OCC3CO3)c2ON1 (stereo unspecified) | 158 to 160 °C
CCCS(=O)(=O)NC(=O)C[C@H]1O[C@H](c2cccc(OC)c2OC)c2cc(Cl)ccc2N(CC(C)(C)CO)C1=O | 135 to 137 °C

Query: Return reported melting point; argument: CC(=O)Nc1cc([N+](=O)[O-])cc([N+](=O)[O-])c1
Result: 189 to 191 °C

Query: Try this compound too: Cc1noc([C@@H](Cc2ccccc2)NC(=O)[C@@H](Cc2ccc3ccccc3c2)NC(=O)OC(C)(C)C)n1
Result: 148 to 150 °C

Query: Try this compound too: Cc1ccc(OCC(O)CNC(C)C)c([N+](=O)[O-])c1[N+](=O)[O-] (stereo unspecified)
Result: 122 to 124 °C

* * *

Property: melting point; scope: individual molecules

Study these solved cases before continuing.
O=C(c1ccc([N+](=O)[O-])cc1)N1CCCCc2ccccc21 | 148 to 150 °C
CCCC(=O)C1=C(O)CC(c2ccc3occc3c2)CC1=O (stereo unspecified) | 71 °C
O=c1c(-c2ccccc2)cc(CO)c2n1CCc1ccsc1-2 | 199 to 200 °C
CCCCCN1C(=O)C(O)(c2cc3c(cc2O)OCO3)c2ccncc21 (stereo unspecified) | 193 to 195 °C
CC1CC(=O)NN=C1c1ccc(NCC(C)(C)N)cc1 (stereo unspecified) | 184 to 185 °C
Cc1ccc(-n2nc(N3CCN(C(N)=O)CC3)c3ccccc32)cc1 | 146 to 148 °C

Query: Return reported melting point; argument: CCc1cc(C#N)ccc1N1C(=O)C(=O)N(C(C)(C)CC)C1=S
Result: 173 °C

Query: Try this molecule too: CC(C)Cc1cc(=O)c2cc(OCCCCCN3CCC(O)CC3)ccc2o1
Result: 98 to 99 °C

Query: Try this molecule too: CCCOC(Nc1ccccc1)(OCCC)c1ccnc(C(=O)c2ccc(C)cc2)c1
Result: 120 to 121 °C

Query: Try this molecule too: O=C1c2ccccc2C(=O)N1CC(=O)N1c2ccccc2N(Cc2ccc(OCc3ccccc3)cc2)C(=O)[C@H]2CCC[C@H]21 (relative stereo)
Result: 179 to 181 °C

Query: Try this molecule too: CCCC(=O)NCCc1cccc2ccc(SC)cc12
Result: 55 to 57 °C

Query: Try this molecule too: Cc1cccnc1COc1nn2c(-c3ccccc3)nnc2cc1N1CCCCC1
Result: 160 °C

Query: Try this molecule too: CON=Cc1ccc2c(c1)ncn2-c1cccc(-c2ncccn2)c1
Result: 158 to 159 °C

Query: Try this molecule too: CCCc1c(O)c(Cl)cc(C(=O)OC)c1O
Result: 75 to 76 °C

Query: Try this molecule too: CC(C)Oc1nccc(-c2c(-c3ccc(F)cc3)ncn2C2CCC(=O)CC2)n1
Result: 161 to 163 °C
